test: pro-inflammatory signaling induction in mouse macrophages – cell-based, murine, luminescence (AID 652131); also: test concentration not given here
measurement_context: murine macrophage pro-inflammatory reporter, stronger effect = higher value
A collection of compounds and their measured z-score
Please reply with the number alone, leaving off any unit.

Please review the entries below; each comes with its answer.
NC(=O)Cc1ccccc1Oc1nccc(-c2c(-c3ccc(F)cc3)ncn2C2CCNCC2)n1; 0.598
COc1cc2ncn(-c3cc(OCCc4ccccc4)c(C(N)=O)s3)c2cc1OC; 0.419

// O=C(Nc1ccc(Oc2ccc3nc(NC(=O)c4ccco4)[nH]c3c2)cc1)Nc1cc(C(F)(F)F)ccc1F : z-score value = -0.544

Per the record, NC(=O)c1cccc(Nc2nccc(Nc3cccc4[nH]ncc34)n2)c1 has z-score of 1.14

For this compound ( NC(=O)c1sc(-n2cnc3ccccc32)cc1OCc1ccccc1Br ), measured z-score is 0.164

Measured z-score of Nc1nonc1-c1nc2cnccc2n1C1CC1 : -0.857

Lookup result for COC(=O)Nc1nc2ccc(Sc3ccc(NC(=O)Nc4cc(C(F)(F)F)ccc4F)cc3)cc2[nH]1 ; measured z-score: 1.3

The measured z-score associated with COc1cc2ncn(-c3cc(OCc4ccccc4Cl)c(C(N)=O)s3)c2cc1OC reads -0.517
